Source of measurements: patent US20180339041A1

Reported koff by item:
# measured-target: T1, C-terminally FLAG-tagged human Gas6 recombinant protein (hGas6-F) (human, UniProt Q14393 31-678, gamma-carboxylated glutamic acid residues in the Gla domain (producer cells co-express rat VKOR and human GGCX); positions not given)
# T1 construct: also called human Gas6-F; human Gas6 protein
# T1 sequence: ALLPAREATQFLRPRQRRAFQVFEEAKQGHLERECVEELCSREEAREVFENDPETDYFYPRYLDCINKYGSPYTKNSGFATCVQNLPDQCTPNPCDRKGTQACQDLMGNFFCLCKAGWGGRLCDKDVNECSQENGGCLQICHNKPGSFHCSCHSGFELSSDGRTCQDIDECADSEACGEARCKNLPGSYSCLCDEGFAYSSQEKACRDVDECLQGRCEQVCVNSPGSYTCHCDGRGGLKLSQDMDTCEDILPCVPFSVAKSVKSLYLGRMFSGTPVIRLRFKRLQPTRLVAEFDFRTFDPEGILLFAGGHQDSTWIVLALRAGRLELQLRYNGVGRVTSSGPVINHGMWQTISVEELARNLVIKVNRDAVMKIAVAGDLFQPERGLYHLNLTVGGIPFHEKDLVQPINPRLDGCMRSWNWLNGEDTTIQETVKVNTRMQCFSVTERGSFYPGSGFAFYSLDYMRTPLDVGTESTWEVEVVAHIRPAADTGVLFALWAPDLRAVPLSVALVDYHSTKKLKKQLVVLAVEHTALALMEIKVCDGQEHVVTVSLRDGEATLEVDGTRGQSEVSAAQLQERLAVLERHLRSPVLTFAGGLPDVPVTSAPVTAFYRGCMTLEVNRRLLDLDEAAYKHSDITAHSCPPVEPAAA
# experimental-details: SPR Biacore T100, captured antibody, Gas6 analyte, retest
All answers are understood in s⁻¹, so give the number only.

// known answers, use as guide
KM5321 chimeric antibody (antibody, V domains shown, also called KM5321 chimera; B-01) VH: QIQLVQSGPELKKPGETVKISCRASGYTFTNYGMNWVKQAPGKGLKWMGWINTNTGEPTYTEEFKGRFAFSLETSATTAYLQINDLKNEDTATYFCARDEGWFVYWGQGTLITVSA VL: ETTVTQSPASLSVATGEKVTIRCITSTDIDDDMNWYQQKPGEPPKLLISEGNTLRPGVPSRFSSSGYGTDFVFTIENTLSEDVADYYCLQTDSVPLTFGAGTKLELK ... 7.66e-05
hzKM5321 LV6HV2b antibody (antibody, V domains shown, Humanized; variant human IgG4 constant region (EU S228P, L235E, R409K), human kappa; also called B-24; LV6HV2b) VH: QVHLVQSGPELKKPGASVKISCKASGYTFTNYGMNWVRQAPGQGLEWMGWINTNTGEPTYTEEFKGRFVFSLDTSVTTSYLQISTLKAEDTATYFCARDEGWFVYWGQGTLVTVSS VL: ETTLTQSPSSLSVSTGDRVTITCITSTDIDDDMNWYQQKPGKPPKLLISEGNTLRPGVPSRFSSSGSGTDFTLTISSTQPEDFADYYCLQTDSVPLTFGQGTKVEIK ... 0.000154

*Q* Please supply the value of reported koff for the item hzKM5320 LV1bHV0 antibody (antibody, V domains shown, Humanized; variant human IgG4 constant region (EU S228P, L235E, R409K), human kappa; also called A-04) VH: QVQLVQSGSELKKPGASVKVSCKASGYTFTNYGMNWVRQAPGQGLEWMGWINTETGEPTYSDDFKGRFVFSLDTSVSTAYLQISSLKAEDTAVYYCAREDGYYGTLDYWGQGTTVTVSS VL: DVVMTQSPDSLAVSLGERVTINCKASQSVSNDVAWYQQKPGQSPKLLIYYASNRYTGVPDRFSGSGSGTDFTLTISSVQAEDVAVYYCQQDYSSPWTFGQGTKLEIK
*A* 0.00149
